Target: T1, RXFP1 receptor (UniProt Q9HBX9 1-757, limits assumed)
T1 sequence (looked up): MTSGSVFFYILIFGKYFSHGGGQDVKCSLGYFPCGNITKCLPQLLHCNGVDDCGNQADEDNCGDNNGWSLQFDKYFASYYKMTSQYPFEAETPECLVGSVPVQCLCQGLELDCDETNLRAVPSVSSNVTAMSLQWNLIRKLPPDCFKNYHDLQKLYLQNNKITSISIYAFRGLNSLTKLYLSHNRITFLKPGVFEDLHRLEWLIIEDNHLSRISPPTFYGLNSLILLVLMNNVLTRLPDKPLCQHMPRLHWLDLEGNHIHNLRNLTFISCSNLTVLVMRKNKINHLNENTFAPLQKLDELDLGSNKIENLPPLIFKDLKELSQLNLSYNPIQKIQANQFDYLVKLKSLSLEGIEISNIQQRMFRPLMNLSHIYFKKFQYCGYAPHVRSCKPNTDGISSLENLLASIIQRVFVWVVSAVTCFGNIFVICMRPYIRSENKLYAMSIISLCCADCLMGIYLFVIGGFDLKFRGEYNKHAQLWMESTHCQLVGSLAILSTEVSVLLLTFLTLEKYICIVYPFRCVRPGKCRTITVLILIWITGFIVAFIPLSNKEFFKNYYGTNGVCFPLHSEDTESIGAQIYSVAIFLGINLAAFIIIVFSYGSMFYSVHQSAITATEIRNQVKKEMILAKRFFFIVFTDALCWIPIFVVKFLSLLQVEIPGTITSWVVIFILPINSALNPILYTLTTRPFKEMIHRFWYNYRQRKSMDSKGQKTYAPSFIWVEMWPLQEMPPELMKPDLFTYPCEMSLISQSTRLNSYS
Test: cell-based or functional assay
*1 amine or outer side, *2 acyl side, *3 side chain or, on linkers, in order; H or OH if unused. Primed or numbered codes have the meaning given here. Side-chain parts run from the residue outwards. [ ]: non-standard residue; d: D form. The star is where a group is joined. PEG2DGA = 2-[2-[3-[2-[2-(3-aminopropoxy)ethoxy]ethoxy]propylamino-2-oxo-ethoxy]acetyl; TTDS″ = 4-[3-[2-[2-(3-aminopropoxy)ethoxy]ethoxy]propylamino]-4-oxo-butanoyl; PEG12 = NCCOCCOCCOCCOCCOCCOCCOCCOCCOCCOCCOCCOCCC(=O)O; γGlu = O=C(O)[C@H](CCC(=O)[*:2])N[*:1]; Stearoyl = CCCCCCCCCCCCCCCCCC(=O)*; Palmitoyl = CCCCCCCCCCCCCCCC(=O)*; αMeK = C[C@](N)(CCCCN)C(=O)O; Nle = CCCC[C@H](N)C(=O)O; PEG2′ = PEG2 spacer unit; PEG2″ = not defined here; Aib = CC(C)(N)C(=O)O
Property name: EC50 (nM), OVCAR 5 cells (cAMP)

Reference set, count: 2
Ac-LEGREKVRAK(Ac)I[Aib][Aib]EG[Nle]STWS[Aib]RKK(Ac)K([PEG2″-PEG2″-PEG2″-PEG2″-γGlu-γGlu-γGlu-Palmitoyl])-NH2 [peptide of SEQ ID NO: 64] | 0.2
Ac-LEGREKVRAK(Ac)I[Aib][Aib]EG[Nle]STWX[Aib]RKK(Ac)[PEG12]K([γGlu-γGlu-γGlu-Stearoyl])-NH2 (not fully specified (some residues); printed as Ac-L-E-G-R-E-K-V-R-A-K(Ac)-I-Aib-Aib-E-G-Nle-S-T-W-Mse-Aib-R-K-K(Ac)-PEG12-K(gE-gE-gE-Stea)-NH2) [peptide of SEQ ID NO: 41] | 0.09

[1] Ac-LEGREKVRAQI[Aib][Aib]EG[Nle]STWS[Aib]RKK([PEG2′-γGlu-γGlu-γGlu-Palmitoyl])-NH2 [peptide of SEQ ID NO: 55]
[2] Ac-LEGREKVRAK(Ac)I[Aib][Aib]EG[Nle]STFS[αMeK]RAK(Ac)K([TTDS″-TTDS″-TTDS″-γGlu-γGlu-γGlu-Palmitoyl])-NH2 [peptide of SEQ ID NO: 183]
[3] Ac-LEGREKVRAK(Ac)I[Aib][Aib]EGQSTWS[Aib]RKKK([PEG2′-PEG2′-PEG2′-γGlu-γGlu-γGlu-γGlu-Stearoyl])-NH2 [peptide of SEQ ID NO: 115]
[4] Ac-LEGREKVRAK(Ac)I[Aib][Aib]EG[Nle]STWS[Aib]RKK(Ac)K([PEG2DGA-PEG2DGA-γGlu-γGlu-γGlu-Stearoyl])-NH2 [peptide of SEQ ID NO: 95]
Form: Sort by [EC50 (nM), OVCAR 5 cells (cAMP)] Order [ ascending ] # the answer lists labels in the order requested
2, 3, 4, 1
(2: 0.08 nM, 3: 0.17 nM, 4: 1.03 nM, 1: 19.3 nM)
